# Tested on: K4 kissing-loop RNA reporter
# procedure.details: apparent KD of K4 kissing-loop reporter; higher = weaker reporter binding
# test.conditions: Eterna round: R107; input ligand: FMN 200 uM
Quick reference: apparent KD of K4 kissing-loop reporter of the listed items.
Quick note: give the figure in nM, leave out the unit.

construct.sequence	recorded.endpoint	measurement
CACGGAGUGAUGUUCCGACCGAGGAACGAUACCAGACAAGUAUACGUCCCUUGGCAGCGUUUCUUAUAUAGUCAACGUUACCGUA [Theo A Ex t3]	apparent KD of K4 kissing-loop reporter	395
AGGGAUGUUAAAGGAUAUAGAAAGUGAUGUUAGAAAGUGAGUGAUGUUGAUGUAAGUGAUGUUAUGUUAGAAGGUUAACAAAACG [ab]	apparent KD of K4 kissing-loop reporter	229
AAAAUAACCCAGUGAUGUUGGUCUCCAGAUACCAGCGACGAAAGUCGCCCUUGGCAGCUGUGGACGUACAAAAUAAGUACGUCCU	apparent KD of K4 kissing-loop reporter	661
GCGCGUCAUGUCAGCGGUGACACUGUCGAUACCAGUGCCGGAAGGCGCCCUUGGCAGCGACGUGCUGGAGUGAUGUUCCAGCGUU [#2 Exclusion - Theophylline A Attempt #28 (HarryS)]	apparent KD of K4 kissing-loop reporter	136
GCCGCAAGGCUAGCAGCAAUAGGCGCUCGCUAGGAUAUCUGGAAACAGAGAAGGAGCUGGAGUGAUGUUUUACCUCCUUGUUAUU	apparent KD of K4 kissing-loop reporter	1000

Let us move to another entry and its apparent KD of K4 kissing-loop reporter.
Notebook: GUGCGCGCGGCGGCCGCCACUCGCAUGAGAGUGAUGUUCUCACCGUGACCGUAAGGUCGCGGUGUGAGGACCGGGCCGGGCUGCG [#2 Same State - Tryptophan B Attempt #24 (HarryS)] , apparent KD of K4 kissing-loop reporter read as 181

###

Listing: apparent KD of K4 kissing-loop reporter of selected sequences
# Test system: K4 kissing-loop RNA reporter
# procedure.details: apparent KD of K4 kissing-loop reporter; higher = weaker reporter binding
# test.conditions: Eterna round: R107; input ligand: tryptophan 2.4 mM
Expressed in nM, but write only the number.

Would you please look over these solved cases?
construct.sequence	apparent KD of K4 kissing-loop reporter, nM
CCAUCGCUAUUCGAUACCAGCUAAAUAUAAUAUAACCAGUGAUGUUGGUAUAUAAAUAUAAGCCCUUGGCAGCGAAUAGUGAUGG [Theophylline B K4 30]	109
UGAUACCAGGCGGCCGCCACUCCUACAGGUCAAAGACCUGUAGAACUGGUUUUUUAGUGAUGUUGGAGGACCGGGCCUGGUAUCU [FiskerMod 30 - Jieux - Exclusion - Tryptophan B]	321

Next:
// recorded apparent KD of K4 kissing-loop reporter for AUGCGCGUGCGAUGAAAAUCGCACGCGCAUCGAGGACCGGUACGGCCGCCACUCGCUCGCGCCGAGUGAUGUUCGGCCGGCGAAC [#2 Same State - Tryptophan A Attempt #4 (HarryS)] : 506

###

# Tested on: K4 kissing-loop RNA reporter;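 note: bound reporter read as fluorescence of individual clusters on recovered sequencing chips by microscopy, with normalized cluster intensities fitted with a binding model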
# procedure.details: apparent KD of K4 kissing-loop reporter; higher = weaker reporter binding
# test.conditions: Eterna round: R107; input ligand: arginine 13.2 mM
Below, each entry is listed with its recorded apparent KD of K4 kissing-loop reporter.
Form field: result (number plus unit)

Consider the following illustrative entries.
construct.sequence	target.desc	apparent KD of K4 kissing-loop reporter
UAUCUUUACUGAAGGAGCGAGCAUUUUGGAGUGAUGUUCCGAGCGAGUGAUGUUCGCAUAGCUCAGGUAGGUCGCAGUGGGAAAA [Same State Arginie B GF 15]	K4 kissing-loop RNA reporter	149 nM
GUGCGCGGUGCGGCCGCCACUCGGAUGCGAGUGAUGUUCGCGGGACGGACGCAAGUCCGUCAUUCGAGGACCGGGCAUGGCUGCA [#2 Same State - Tryptophan B Attempt #6 (HarryS)]	K4 kissing-loop RNA reporter	196 nM
UGUGGAGAAUAUGAUACCAGCAGUGAGAGAGAGGAAGUAUAGUGAUGUUAUAUGAGAGAAUGCCCUUGGCAGCAUAUGUAGUAGG [SSTheophylB.G]	K4 kissing-loop RNA reporter	162 nM
GGUAGCAUGGCGGCCGCCACUAACAACCUCACCUGCGGCUCGAUCGAGUGAUGUUCGAACGCAAUUAGGACCGGGCCAUGCUACC	K4 kissing-loop RNA reporter	64.8 nM
UGAUAGGACAGAAGGAGCGGAAGUGAUGUUUCCAAAUGGAUAAGGUGUCAAAAGACACCCUUCCAGGUAGGUCGCUGUCCUAUCU [ArgBX 14 #Palindromic #SwitchBubble #StaticStem]	K4 kissing-loop RNA reporter	112 nM

Moving on to the next sequence.
According to the records, this sequence ACAGCGAGCAUUAACGCGCUCGCAGGUUGCAAGGAUAUAUUUCGUCAUAGAAGGUGCUAGACCAUAAGUGAUGUUUGUGGAUAUA [theeternabot_sameState_KL_FMN_A_16] displays apparent KD of K4 kissing-loop reporter of 396 nM
